Numbers sourced from patent US8063093B2.

melting point: recorded values

Some entries whose results are on file:
| test.smiles | melting point |
| --- | --- |
| COc1c(O)c(C(C)=O)c(OCc2ccc(C(C)C)cc2)c2ccoc12 | 73 to 75 °C |
| COc1c(C(C)=O)c(O)c(OCc2ccc(C(C)(C)C)cc2)c2occc12 | 117 to 118 °C |
| COc1c(C(C)=O)c(O)c(OCc2ccc(C(F)(F)F)cc2)c2occc12 | 90 to 91 °C |
| COc1c(O)c(C(C)=O)c(OCCCCOc2c(C(C)=O)c(O)c(OC)c3occc23)c2ccoc12 | 209 to 211 °C |
| COc1c(C(C)=O)c(O)c(OCc2ccccc2F)c2occc12 | 89 to 92 °C |
| COc1c(O)c(C(C)=O)c(OCc2cccc(C)c2)c2ccoc12 | 99 to 101 °C |

## Task Quick check: melting point of COc1c(C(C)=O)c(O)c(OCc2ccc(C(C)C)cc2)c2occc12 ?
## Result 80 to 83 °C

## Task Try COc1c(O)c(C(C)=O)c(OCCCCc2ccccc2)c2ccoc12 next.
## Result 121 to 122 °C

## Task Try COc1c(C(C)=O)c(O)c(OCc2cccc(Cl)c2)c2occc12 next.
## Result 105 to 108 °C

## Task Try COc1c(C(C)=O)c(O)c(OCc2ccc(OCc3ccccc3)cc2)c2occc12 next.
## Result 118 to 120 °C

## Task Try COc1c(C(C)=O)c(O)c(OCCCCCCOc2c(O)c(C(C)=O)c(OC)c3ccoc23)c2occc12 next.
## Result 109 to 111 °C

====

Tested on: peripheral blood mononuclear cells
Assay: [3H]-thymidine incorporation (proliferation), anti-CD3 stimulated
Type: cell-based
Conditions: Homo sapiens, PBMC; Table 9; 5 ng/ml anti-CD3 Ab for 48 h
EC50: recorded values
Field: numeric (nM). Do not append units.

Some entries whose results are on file:
| compound | tested.target | EC50 [nM] |
| --- | --- | --- |
| COc1c(C(C)=O)c(O)c(OCc2ccc(Br)cc2)c2occc12 [Compound 55] | peripheral blood mononuclear cells | 2500 |
| COc1c(O)c(C(C)=O)c(OCc2ccc(Cl)cc2)c2ccoc12 [Compound 22] | peripheral blood mononuclear cells | 2500 |

Next compound, EC50 to be filled in.
## Task Which EC50 is reported with peripheral blood mononuclear cells for this entry: COc1c(C(C)=O)c(O)c(OCCCc2ccccc2)c2occc12 [Compound 41] ?
## Result 1000

====

test.readout: melting point

Some entries whose results are on file:
| test.smiles | melting point |
| --- | --- |
| COc1c(C(C)=O)c(O)c(OCc2cccc(C)c2)c2occc12 | 81 to 82 °C |
| COc1c(C(C)=O)c(O)c(OCCc2ccccc2)c2occc12 | 102 to 104 °C |
| COc1c(O)c(C(C)=O)c(OCc2ccccc2)c2ccoc12 | 93 to 94 °C |
| COc1c(O)c(C(C)=O)c(OCc2cccc(OC(F)(F)F)c2)c2ccoc12 | 86 to 88 °C |
| COc1c(O)c(C(C)=O)c(OCc2cccc(F)c2)c2ccoc12 | 118 to 121 °C |
| COc1c(O)c(C(C)=O)c(OCCCCCCCOc2c(C(C)=O)c(O)c(OC)c3occc23)c2ccoc12 | 122 to 125 °C |
| COc1c(O)c(C(C)=O)c(OCc2ccc(C(=O)c3ccccc3)cc2)c2ccoc12 | 132 to 134 °C |
| COc1c(O)c(C(C)=O)c(OCc2ccc(OCc3ccccc3)cc2)c2ccoc12 | 155 to 157 °C |

## Task Quick check: melting point of COc1c(O)c(C(C)=O)c(OCc2ccc(Cl)cc2)c2ccoc12 ?
## Result 106 to 108 °C

## Task Try COc1c(O)c(C(C)=O)c(OCc2ccccc2-c2ccccc2)c2ccoc12 next.
## Result 126 to 127 °C

## Task Try COc1c(O)c(C(C)=O)c(OCc2ccc(C(C)(C)C)cc2)c2ccoc12 next.
## Result 82 to 87 °C

## Task Try COc1c(O)c(C(C)=O)c(OCc2cccc3ccccc23)c2ccoc12 next.
## Result 96 to 98 °C

## Task Try COc1c(C(C)=O)c(O)c(OCc2ccc(C(=O)O)cc2)c2occc12 next.
## Result 208 to 209 °C

## Task Try COc1c(O)c(C(C)=O)c(OCc2ccccc2Cl)c2ccoc12 next.
## Result 84 to 86 °C

## Task Try COc1c(O)c(C(C)=O)c(OCc2ccc(C(=O)O)cc2)c2ccoc12 next.
## Result 183 to 186 °C

## Task Try COc1c(O)c(C(C)=O)c(OCc2ccc(OC(F)(F)F)cc2)c2ccoc12 next.
## Result 130 to 131 °C

## Task Try CC(=O)c1c(O)c(OCc2ccccc2)c2occc2c1OCc1ccccc1 next.
## Result 74 to 76 °C

## Task Try COc1c(C(C)=O)c(O)c(OCCCCCc2ccccc2)c2occc12 next.
## Result 31 to 32 °C

====

test.readout: melting point

Some entries whose results are on file:
| test.smiles | melting point |
| --- | --- |
| COc1c(C(C)=O)c(O)c(OCCCCc2ccccc2)c2occc12 | 28 °C |
| COc1c(O)c(C(C)=O)c(OCc2ccccc2F)c2ccoc12 | 105 to 108 °C |
| COc1c(O)c(C(C)=O)c(OCCCCCOc2c(C(C)=O)c(O)c(OC)c3occc23)c2ccoc12 | 139 to 141 °C |
| COc1c(C(C)=O)c(O)c(OCc2ccccc2-c2ccccc2)c2occc12 | 115 to 117 °C |
| COc1c(O)c(C(C)=O)c(OCc2ccccc2C)c2ccoc12 | 101 to 103 °C |

## Task Quick check: melting point of COc1c2occc2c(OCCCCc2ccccc2)c2c(=O)cc(C)oc12 ?
## Result 121 to 122 °C

## Task Try COc1c(O)c(C(C)=O)c(OCCCCCCOc2c(C(C)=O)c(O)c(OC)c3occc23)c2ccoc12 next.
## Result 147 to 151 °C

## Task Try COc1c(O)c(C(C)=O)c(OCCCc2ccccc2)c2ccoc12 next.
## Result 94 to 95 °C

## Task Try COc1c(C(C)=O)c(O)c(OCc2cccc(F)c2)c2occc12 next.
## Result 89 to 91 °C

====

melting point: recorded values

## Task Quick check: melting point of COc1c(C(C)=O)c(O)c(OCc2ccc(Br)cc2)c2occc12 [Compound 55] ?
## Result 106 to 107 °C

## Task Try COc1c(C(C)=O)c(O)c(OCc2ccc(-c3ccccc3)cc2)c2occc12 [Compound 59] next.
## Result 126 to 127 °C

## Task Try COc1c(O)c(C(C)=O)c(OCc2ccc(-c3ccccc3)cc2)c2ccoc12 [Compound 27] next.
## Result 163 to 167 °C

## Task Try COc1c(C(C)=O)c(O)c(OCc2ccccc2C)c2occc12 [Compound 46] next.
## Result 86 to 88 °C

## Task Try COc1c(C(C)=O)c(O)c(OCCCCCOc2c(O)c(C(C)=O)c(OC)c3ccoc23)c2occc12 [Compound 91] next.
## Result 132 to 134 °C

## Task Try COc1c(C(C)=O)c(O)c(OCc2ccc(Cl)cc2)c2occc12 [Compound 54] next.
## Result 110 °C

## Task Try COc1c(C(C)=O)c(O)c(OCc2ccccc2)c2occc12 [Compound 39] next.
## Result 79 to 80 °C

## Task Try COc1c(C(C)=O)c(O)c(OCc2ccc(F)cc2)c2occc12 [Compound 53] next.
## Result 99 to 100 °C

## Task Try COc1c(C(C)=O)c(O)c(OCc2ccc(COc3c(O)c(C(C)=O)c(OC)c4ccoc34)cc2)c2occc12 [Compound 95] next.
## Result 184 to 186 °C

## Task Try COc1c(C(C)=O)c(O)c(OCc2cccc(COc3c(O)c(C(C)=O)c(OC)c4ccoc34)c2)c2occc12 [Compound 94] next.
## Result 125 to 128 °C

## Task Try COc1c(O)c(C(C)=O)c(OCc2cccc(COc3c(C(C)=O)c(O)c(OC)c4occc34)c2)c2ccoc12 [Compound 88] next.
## Result 184 to 186 °C

## Task Try COc1c(C(C)=O)c(O)c(OCc2cccc([N+](=O)[O-])c2)c2occc12 [Compound 52] next.
## Result 157 to 159 °C

## Task Try COc1c(C(C)=O)c(O)c(OCc2ccccc2Cl)c2occc12 [Compound 45] next.
## Result 104 to 107 °C

## Task Try COc1c(O)c(C(C)=O)c(OCc2ccc(COc3c(C(C)=O)c(O)c(OC)c4occc34)cc2)c2ccoc12 [Compound 89] next.
## Result 201 to 203 °C

## Task Try COc1c(O)c(C(C)=O)c(OCc2cccc([N+](=O)[O-])c2)c2ccoc12 [Compound 20] next.
## Result 160 to 162 °C
